Recorded values, source patent US20200347130A1.

This section presents binders with their documented Kd values.
# STUDY TARGET: T1, CD96 extracellular region with His tag (CD96-His) (human, UniProt P40200 22-519)
# T1 construct: also called CD96-ECD-His; Bio-CD96-His (biotin-labelled form)
# T1 sequence: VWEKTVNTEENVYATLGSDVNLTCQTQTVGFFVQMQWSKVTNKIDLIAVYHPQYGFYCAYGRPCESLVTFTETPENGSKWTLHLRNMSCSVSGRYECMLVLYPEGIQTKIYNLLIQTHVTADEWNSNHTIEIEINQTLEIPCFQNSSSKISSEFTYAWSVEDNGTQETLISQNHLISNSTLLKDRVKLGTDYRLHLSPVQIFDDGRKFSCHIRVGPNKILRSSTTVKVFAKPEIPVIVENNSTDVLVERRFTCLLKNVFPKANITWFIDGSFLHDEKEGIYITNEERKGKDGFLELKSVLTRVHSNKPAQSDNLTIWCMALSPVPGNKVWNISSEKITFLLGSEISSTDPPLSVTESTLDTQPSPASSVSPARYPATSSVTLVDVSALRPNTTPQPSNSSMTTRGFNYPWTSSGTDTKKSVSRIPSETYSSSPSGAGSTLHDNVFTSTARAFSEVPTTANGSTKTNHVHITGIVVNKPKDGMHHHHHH
# ASSAY INFO: SPR (Biacore), antibody captured, CD96-ECD-His as mobile phase
Answer format: numeric, nM implied, no suffix.

[[record]]
binder = "h1718-012 (antibody, V domains shown, Only variable regions are tied to this name) VH: EVQLVQSGAEVKKPGASVKVSCKASGYTITDYNMNWVRQAPGQRLEWIGVINPSYGITDYNQNFKDRVTITVDTSASTAYMELSSLRSEDTAVYYCAIQLRLPGYFDVWGQGTTVTVSS VL: DIQMTQSPSSLSASVGDRVTITCKASQDINQYLNWFQQKPGKAPKTLIYRANRLVDGVPSRFSGSGSGQDYTLTISSLQPEDFATYYCLKYDEFPYTFGGGTKVEIK"
result_value = 3.98


INPUT: Quick check: Kd of h1718-008 (antibody, V domains shown, Only variable regions are tied to this name) VH: EVQLVQSGAEVKKPGASVKVSCKASGYTITDYNMNWVKQAPGQRLEWIGVINPSYGITDYNQNFKDKVTITVDTSASTAYMELSSLRSEDTAVYYCAIQLRLPGYFDVWGQGTTVTVSS VL: DIQMTQSPSSLSASVGDRVTITCKASQDINNYLNWFQQKPGKAPKTLIYRANRLVDGVPSRFSGSGSGQDYTLTISSLQPEDFATYYCLKYDEFPYTFGGGTKVEIK ?
OUTPUT: 3.37
